Just for reference, PubChem BioAssay (NCI) is where these values come from.

I'd be grateful if you could share measured TGI for these entries.
- System: SNB-75 CNS
- assay.overview: NCI tumour cell line growth inhibition, 48 h
Where a SMILES comes first, the peptide text is derived from it. [ ]: non-standard residue; d: D form. The star is where a group is joined. Chg = N[CH](C(=O)O)C1CCCCC1; Cbz = O=C(OCc1ccccc1)*; OBn = c1ccc(CO*)cc1

Form field: TGI recorded for `OCCOCCO/N=C1\C(c2c(O)[nH]c3ccccc23)=Nc2ccccc21` with SNB-75 CNS (enter value)
13.8 µM

Form field: TGI recorded for CC1OC(OC2C(O)COC(OC3C(C)OC(OC4C(OC(=O)[C@]56CCC(C)(C)C[C@@H]5C5=CCC7[C@@]8(C)C[C@H](O)[C@H](OC9OC(CO)C(O)C(O)C9O)[C@@](C)(CO)[C@@H]8CC[C@@]7(C)[C@]5(C)CC6)OCC(O)C4O)C(O)C3OC3OCC(O)C(O)C3O)C2O)C(O)C(O)C1O (stereo partly drawn) with SNB-75 CNS (enter value)
41.1 µM

Form field: TGI recorded for `O=C(O)c1ccc2nc(-c3ccc(OCCCCCOc4ccc(-c5nc6ccc(C(=O)O)cc6[nH]5)cc4)cc3)[nH]c2c1` with SNB-75 CNS (enter value)
> 100 µM

Form field: TGI recorded for COc1ccc(CN(Cc2ccc(OC)cc2)C(=O)CC2(O)CCc3ccccc3C2)cc1 (stereo not drawn) with SNB-75 CNS (enter value)
> 100 µM

Form field: TGI recorded for `O=C(NCCCCN(CCCNC(=O)C(F)(F)F)Cc1ccccc1)C(F)(F)F` with SNB-75 CNS (enter value)
> 100 µM

Form field: TGI recorded for `COc1cc(Cl)cc(-c2nn(-c3cccc(NC(=O)c4cccc(C(F)(F)F)c4)c3)cc2-c2ccncc2)c1` with SNB-75 CNS (enter value)
> 100 µM

Form field: TGI recorded for C=CCC(NCc1ccccc1)[C@H](OCc1ccccc1)[C@@H]1COC(C)(C)O1 (stereo partly drawn) with SNB-75 CNS (enter value)
> 100 µM

Form field: TGI recorded for `C[C@H](Nc1ccc2c(c1)OCCn1cc(N3C(=O)OC[C@H]3C(F)F)nc1-2)C(N)=O` with SNB-75 CNS (enter value)
5.12 µM

Form field: TGI recorded for `O=C1/C(=C/c2ccc(Cl)cc2Cl)CN(S(=O)(=O)c2ccccc2)C/C1=C\c1ccc(Cl)cc1Cl` with SNB-75 CNS (enter value)
8.2 µM

Form field: TGI recorded for `Cc1ccc(NC(=O)CC(=O)n2nc(-c3ccccc3)c(N=Nc3ccccc3[N+](=O)[O-])c2-c2ccccc2)cc1` with SNB-75 CNS (enter value)
> 100 µM

Form field: TGI recorded for CCOc1c(OC)cc(C2c3cc4c(c(OCC)c3CC3COC(=O)C32)OCO4)cc1OC (stereo not drawn) with SNB-75 CNS (enter value)
> 100 µM

Form field: TGI recorded for `CCOC(=O)c1cnc2c(C)cc(C)cc2c1NCCCN(C)C` with SNB-75 CNS (enter value)
17.4 µM

Form field: TGI recorded for `O=c1cc(-c2ccccc2)oc2cc(OCc3cn(Cc4ccc(F)cc4)nn3)cc(OCc3cn(Cc4ccc(F)cc4)nn3)c12` with SNB-75 CNS (enter value)
4.85 µM

Form field: TGI recorded for `Cc1ncc(CSc2ccccc2N)c(CO)c1O` with SNB-75 CNS (enter value)
> 100 µM

Form field: TGI recorded for `O=C(Cn1nnc(-c2ccccc2)n1)N/N=C/c1cn(Cc2ccc(Cl)cc2Cl)c2ccccc12` with SNB-75 CNS (enter value)
> 100 µM

Form field: TGI recorded for COc1ccc(C(=O)N2N=C(c3ccc(Br)cc3)CC2c2cn(-c3ccccc3)nc2-c2ccccc2)cc1 (stereo not drawn) with SNB-75 CNS (enter value)
> 50 µM

Form field: TGI recorded for `CC(C)NC(=O)OCc1c(COC(=O)NC(C)C)n(C)c2c1ccc1ccsc12` with SNB-75 CNS (enter value)
26.9 µM

Form field: TGI recorded for NC(N)=NCCCC(NC(=O)OCCCCCn1ccc(N)nc1=O)C(=O)O (stereo not drawn) with SNB-75 CNS (enter value)
> 100 µM

Form field: TGI recorded for COC(=O)C(NC(=O)C(CC(=O)OCc1ccccc1)NC(=O)OCc1ccccc1)C1CCCCC1 (stereo not drawn) (Cbz-Asp(OBn)-[Chg]-OMe; configuration not given here) with SNB-75 CNS (enter value)
> 100 µM

Form field: TGI recorded for CC(C)[C@@H](C)CC[C@@H](C)C1CC=C2[C@@H]3CCC4C[C@@H](O[Si](C)(C)C(C)(C)C)CC[C@]4(C)C3CC[C@@]21C (stereo partly drawn) with SNB-75 CNS (enter value)
> 100 µM

Form field: TGI recorded for `Cn1cc(NC(=O)c2cc(NC(=O)CCCCCCCCC(=O)Nc3cc(C(=O)Nc4cc(C(=O)NCCC(N)N)n(C)c4)n(C)c3)cn2C)cc1C(=O)NCCC(=N)N` with SNB-75 CNS (enter value)
55.3 µM

Form field: TGI recorded for `O=c1cccccc1NCCCCCCCCNc1cccccc1=O` with SNB-75 CNS (enter value)
> 100 µM

Form field: TGI recorded for `Cc1ccc(Oc2ccc(C(=O)c3cccc(C(=O)c4ccc(Oc5ccc(C)cc5)cc4)n3)cc2)cc1` with SNB-75 CNS (enter value)
> 100 µM

Form field: TGI recorded for C[C@]12CC[C@H](OC3CCCCO3)CC1=CC[C@@H]1C2CC[C@]2(C)/C(=N/OCCC#N)CCC12 (stereo partly drawn) with SNB-75 CNS (enter value)
58.4 µM

Form field: TGI recorded for `Cc1cc(Cl)ccc1Nc1nc(C(F)(F)F)ccc1C(=O)N/N=C/c1cccc(O)c1` with SNB-75 CNS (enter value)
13.8 µM

Form field: TGI recorded for `N/C(=N\Nc1ccc(C(=O)O)cc1)c1cnccn1` with SNB-75 CNS (enter value)
> 100 µM

Form field: TGI recorded for `O=C1CNN=C(CSc2nc3ccc(I)cc3c(=O)n2Cc2ccccc2)N1` with SNB-75 CNS (enter value)
35.8 µM

Form field: TGI recorded for C=C[C@]1(C)CC(O)C2C(=C)C(=O)OC2[C@H]1C(=C)C=O (stereo partly drawn) with SNB-75 CNS (enter value)
47.9 µM

Form field: TGI recorded for `Clc1ccc(OCc2nnc3n2N=C(c2ccccc2)CS3)cc1` with SNB-75 CNS (enter value)
85.7 µM

Form field: TGI recorded for `Oc1cc2ccccc2cc1-c1n[nH]c(=S)n1CCc1ccccc1` with SNB-75 CNS (enter value)
> 100 µM

Form field: TGI recorded for `COC(=O)c1ccc2cc(O)c(O)cc2c1` with SNB-75 CNS (enter value)
> 100 µM

Form field: TGI recorded for CC(C)N(C(=O)C12C3(C(=O)OC(C)(C)C)C4C5(C#N)C3C1(C(=O)OC(C)(C)C)C5C42C(=O)OC(C)(C)C)C(C)C (stereo not drawn) with SNB-75 CNS (enter value)
41.8 µM

Form field: TGI recorded for COC(=O)CCC1(C)C2CCC1/C(=N/O)C2 (stereo not drawn) with SNB-75 CNS (enter value)
> 100 µM
